# test_details: chemical genetic growth profiling, strain panel (AID 1159580);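 note: tested at 20 µM; growth read once vehicle control cultures reached saturation at 30 °C; 1 = growth at the plate median or of vehicle wells; lower values mean less growth of the strain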
# experimental_conditions: S. cerevisiae deletion strains, growth OD, locus YLR371W, strain rom2, active compounds read low
The campaign covered roughly 5,500 compounds. About 2,000 (36%) were called active. Another 18% or so got no clear call; they are omitted. Some of the results follow.
Here the recorded normalized growth is given for each entry.

Sample CCOC(=O)C1=C(O)C(=O)N(Cc2ccccc2)C1 ; normalized growth observed: 1.01 (inactive)

Further cases:
Sample NC[C@@H]1O[C@H](O[C@@H]2[C@@H](CO)OC(O[C@@H]3[C@@H](O)[C@H](N)C[C@H](N)[C@H]3O[C@H]3O[C@H](CO)[C@@H](O)[C@H](O)[C@H]3N)[C@@H]2O)[C@H](N)[C@@H](O)[C@@H]1O (stereo not given in full) ; normalized growth observed: 1 (inactive)

Sample CC(C)(C)NCC(O)COc1cccc2c1C[C@H](O)[C@H](O)C2 (stereo not given in full) ; normalized growth observed: 0.994 (inactive)

Sample CSCCC(N)C(=O)NC(CC(C)C)C(=O)NC(Cc1ccccc1)C(=O)O (stereo not given) ; normalized growth observed: 1 (inactive)

Sample COc1c(O)cc2c(c1O)[C@H]1O[C@H](CO)[C@@H](O)[C@H](O)[C@@H]1OC2=O ; normalized growth observed: 1.01 (inactive)

Data provenance: PubChem BioAssay AID1159580
